Give measured inhibition in vivo at 0.12 % in diet for each item. Keep answers brief.
Test system: cholesterol in serum
Test summary: Hypocholesterolemic effect in cholesterol-fed mice
Type: in vivo, Male ICR mice
Protocol conditions: Mus musculus, po, 168 h; total minus HDL cholesterol; diet 1% cholesterol and 0.5% sodium cholate with 0.12% test compound, 7 days; read-out: (VLDL + LDL) Chol. reduction (%)
Give your result in % as a bare value.

Exam item: Bench note: what inhibition in vivo at 0.12 % in diet did COC(=O)c1c(C(=O)C(F)(F)C(F)(F)F)c(O)c2cc(OC)c(OC)c(OC)c2c1-c1ccc(OC)c(OC)c1 show?
Marked response: 41

Exam item: Need inhibition in vivo at 0.12 % in diet of COC(=O)c1c(C(=O)c2ccc(F)cc2)c(O)c2cc(OC)c(OC)c(OC)c2c1-c1ccc(OC)c(OC)c1 , thanks.
Marked response: 54

Exam item: Entry CCC(=O)c1c(C(=O)OC)c(-c2ccc(OC)c(OC)c2)c2sc(CC)c(OC)c2c1O : reported inhibition in vivo at 0.12 % in diet = ?
Marked response: 58

Exam item: Any idea what its inhibition in vivo at 0.12 % in diet is? The compound is COC(=O)c1c(C(=O)c2ccc(Cl)cc2)c(O)c2cc(OC)c(OC)c(OC)c2c1-c1ccc(OC)c(OC)c1
Marked response: 74
